molecular target: Phosphatidylinositol 4,5-bisphosphate 3-kinase catalytic subunit gamma isoform (Homo sapiens, UniProt P48736); assay: Inhibition of GST-tagged PI3Kgamma (unknown origin) using PIP2 as substrate preincubated for 2 hrs followed by ATP addition measured after 30 mins by TR-FRET assay
Sequence (P48736 whole entry, canonical isoform): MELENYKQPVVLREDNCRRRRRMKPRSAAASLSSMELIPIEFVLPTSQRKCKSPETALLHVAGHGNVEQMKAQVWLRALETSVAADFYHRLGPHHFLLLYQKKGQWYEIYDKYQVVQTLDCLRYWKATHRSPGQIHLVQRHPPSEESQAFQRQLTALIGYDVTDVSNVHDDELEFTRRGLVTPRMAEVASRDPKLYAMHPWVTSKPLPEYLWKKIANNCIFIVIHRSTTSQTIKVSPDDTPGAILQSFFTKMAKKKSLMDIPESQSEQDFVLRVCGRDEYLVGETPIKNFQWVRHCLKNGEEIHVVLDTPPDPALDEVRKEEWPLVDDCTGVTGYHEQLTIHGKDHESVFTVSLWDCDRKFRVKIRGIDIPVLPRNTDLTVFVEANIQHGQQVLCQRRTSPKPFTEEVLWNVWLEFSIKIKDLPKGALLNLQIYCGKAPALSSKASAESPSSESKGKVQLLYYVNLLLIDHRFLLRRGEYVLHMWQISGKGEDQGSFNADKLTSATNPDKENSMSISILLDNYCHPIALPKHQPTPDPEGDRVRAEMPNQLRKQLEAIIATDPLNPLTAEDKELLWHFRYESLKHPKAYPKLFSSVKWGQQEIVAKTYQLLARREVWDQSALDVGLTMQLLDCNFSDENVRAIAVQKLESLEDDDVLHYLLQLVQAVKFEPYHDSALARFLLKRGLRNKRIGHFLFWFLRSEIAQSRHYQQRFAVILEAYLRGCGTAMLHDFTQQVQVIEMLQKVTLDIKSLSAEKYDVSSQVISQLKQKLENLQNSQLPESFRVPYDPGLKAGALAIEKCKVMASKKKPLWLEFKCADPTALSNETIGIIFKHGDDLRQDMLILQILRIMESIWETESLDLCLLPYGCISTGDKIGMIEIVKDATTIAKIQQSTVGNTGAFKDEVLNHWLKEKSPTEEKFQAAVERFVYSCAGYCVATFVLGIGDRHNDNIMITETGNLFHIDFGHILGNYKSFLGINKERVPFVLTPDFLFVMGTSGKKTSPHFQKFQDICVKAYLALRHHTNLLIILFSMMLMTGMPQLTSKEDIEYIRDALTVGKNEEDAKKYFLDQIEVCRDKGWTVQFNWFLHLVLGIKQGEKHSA
readout.kind: IC50 (µM)
Express your answer in µM, writing the number without its unit.

*Q* GET /values?readout=IC50&item= `C[C@H](Nc1ncnc2[nH]cnc12)c1nc2ccc(F)cc2c(=O)n1-c1ccccc1`
*A* 3

----------
Target: Phosphatidylinositol 4,5-bisphosphate 3-kinase catalytic subunit delta isoform (Homo sapiens, UniProt O00329)
Sequence (O00329 whole entry): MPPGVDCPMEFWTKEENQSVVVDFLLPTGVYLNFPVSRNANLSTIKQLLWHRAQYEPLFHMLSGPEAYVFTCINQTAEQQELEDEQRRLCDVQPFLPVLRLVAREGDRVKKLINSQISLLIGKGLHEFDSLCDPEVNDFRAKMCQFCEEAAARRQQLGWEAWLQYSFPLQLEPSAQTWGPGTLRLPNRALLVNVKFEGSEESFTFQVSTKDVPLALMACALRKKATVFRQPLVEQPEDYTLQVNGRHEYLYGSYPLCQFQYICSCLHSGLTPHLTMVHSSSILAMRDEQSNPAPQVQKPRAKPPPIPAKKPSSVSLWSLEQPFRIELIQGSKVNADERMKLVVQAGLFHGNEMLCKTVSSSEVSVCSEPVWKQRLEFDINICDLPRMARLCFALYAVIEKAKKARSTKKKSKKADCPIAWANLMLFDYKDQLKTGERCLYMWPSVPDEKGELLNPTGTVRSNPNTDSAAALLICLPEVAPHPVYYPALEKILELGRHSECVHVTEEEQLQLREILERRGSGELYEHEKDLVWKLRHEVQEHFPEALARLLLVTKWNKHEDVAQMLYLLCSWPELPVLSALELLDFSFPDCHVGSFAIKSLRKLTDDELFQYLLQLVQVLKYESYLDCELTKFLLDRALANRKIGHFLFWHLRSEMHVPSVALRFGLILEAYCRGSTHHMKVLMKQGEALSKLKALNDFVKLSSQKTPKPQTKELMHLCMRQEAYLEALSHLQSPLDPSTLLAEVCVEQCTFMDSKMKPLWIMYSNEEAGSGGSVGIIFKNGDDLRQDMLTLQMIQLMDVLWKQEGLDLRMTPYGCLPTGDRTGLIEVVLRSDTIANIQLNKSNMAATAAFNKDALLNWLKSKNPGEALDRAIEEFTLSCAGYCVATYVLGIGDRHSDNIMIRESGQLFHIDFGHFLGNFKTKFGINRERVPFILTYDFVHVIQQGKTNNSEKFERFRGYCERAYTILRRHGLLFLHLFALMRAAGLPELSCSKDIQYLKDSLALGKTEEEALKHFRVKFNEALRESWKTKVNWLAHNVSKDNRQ
Assay: Inhibition of PI3Kdelta in human Pfeiffer cells
Assay type: cell-based
readout.kind: IC50

*Q* GET /values?readout=IC50&item= Cc1c(Cl)cc(C(C)Nc2ncnc3nc[nH]c23)c(-c2cccc(F)c2)c1C(N)=O (stereo unspecified)
*A* < 50 nM

----------
Here the recorded pIC50 is given for each entry.
target: Phosphatidylinositol 4,5-bisphosphate 3-kinase catalytic subunit gamma isoform (Homo sapiens, UniProt P48736); experiment: Inhibition of PI3Kgamma (unknown origin)
pIC50: −log10 of the molar value.

C[C@H](Nc1ncnc(N)c1C#N)c1cc2ncc(Cl)n2cc1-c1ccccc1 :: 7.06
CC(c1oc(=O)c2ccccc2c1C1=CCN(C)CC1)n1nc(-c2cc(O)cc(F)c2)c2c(N)ncnc21 (stereo not drawn) :: < 6.00

Proceed to the following item.
*Q* GET /values?readout=pIC50&item= CC(c1cc2ccccn2c1-c1ccc(=O)n(CCN2CCOCC2)n1)n1nc(-c2cc(O)cc(F)c2)c2c(N)ncnc21 (stereo not drawn)
*A* > 8.00
